Listed here: items and their measured TGI.
- Test system: HCT-116 colon
- method.notes: NCI tumour cell line growth inhibition, 48 h

Some solved cases for reference:
molecule	TGI
CCCCCCCCCc1cc(O)c(O)cc1CCCCCCCCC	> 10 µM
CC(=O)Nc1ccc2nncnc2c1	> 100 µM

Q: Give its TGI value. Item: COc1cc(/C=C2\C(=O)N(c3cccc(Cl)c3)C(c3ccccc3)S2(=O)=O)cc(OC)c1OC (stereo not drawn)
Ans: > 100 µM

Q: Same lookup for COC(=O)C12CCC(C(=O)OC)(Cc3c(c4ccccc4n3S(=O)(=O)c3ccccc3)C1)C2=O (stereo not drawn) , please.
Ans: > 26.5 µM

Q: Also CS(C)(=O)=N/C=C\C(=O)C(Cl)(Cl)Cl ?
Ans: > 100 µM
